Let's go through some recorded IC50 values for TrkA (Homo sapiens, UniProt P04629) together.

For COCCN1C[C@@H](NC(=O)Nc2cc(Br)cnc2-c2ccccc2)[C@H](c2ccccc2)C1 [Example 5] the compound record lists IC50 as < 100 nM

For COCCN1C[C@@H](NC(=O)Nc2sc(C(=O)OC)nc2-c2ccccc2)[C@H](c2ccc(F)c(F)c2)C1 the compound record lists IC50 as 100 to 1000 nM

For COCCN1C[C@@H](NC(=O)Nc2cc(S(C)(=O)=O)cnc2-c2ccccc2)[C@H](c2ccc(F)c(F)c2)C1 the compound record lists IC50 as < 100 nM

For COCCN1C[C@@H](NC(=O)Nc2ccc(S(=O)(=O)C3CC3)nc2-c2ccccc2)[C@H](c2ccc(F)c(F)c2)C1 the compound record lists IC50 as < 100 nM

For COCCN1C[C@@H](NC(=O)Nc2c(-c3ccccc3)noc2C)[C@H](c2ccccc2)C1 (relative stereo) the compound record lists IC50 as 100 to 1000 nM

For COCCN1C[C@@H](NC(=O)Nc2ccc(=O)[nH]c2-c2ccccc2)[C@H](c2ccc(F)c(F)c2)C1 the compound record lists IC50 as < 100 nM

For COCCN1C[C@@H](NC(=O)Nc2sc(CO)nc2-c2ccccc2)[C@H](c2ccc(F)c(F)c2)C1 the compound record lists IC50 as < 100 nM

For COCCN1C[C@@H](NC(=O)Nc2ccc(OC)nc2-c2ccccc2)[C@H](c2ccc(F)c(F)c2)C1 the compound record lists IC50 as < 100 nM

For COCCN1C[C@@H](NC(=O)Nc2cc(Cl)cnc2-c2ccccc2)[C@H](c2ccccc2)C1 (relative stereo) the compound record lists IC50 as < 100 nM

For COCCN1C[C@@H](NC(=O)Nc2cccnc2-c2ccccc2)[C@H](c2ccc(F)c(F)c2)C1 the compound record lists IC50 as < 100 nM

For COCCN1C[C@@H](NC(=O)Nc2cc(-c3ccccc3)cnc2C)[C@H](c2ccc(F)c(F)c2)C1 the compound record lists IC50 as 100 to 1000 nM

For COCCN1C[C@@H](NC(=O)Nc2cc(=O)n(C)nc2-c2ccccc2)[C@H](c2ccc(F)c(F)c2)C1 the compound record lists IC50 as 100 to 1000 nM

For COCCN1C[C@@H](NC(=O)Nc2cc(C)cnc2-c2ccccc2)[C@H](c2ccc(F)c(F)c2)C1 the compound record lists IC50 as < 100 nM

For COCCN1C[C@@H](NC(=O)Nc2cc(-c3ccccc3)cnc2-c2ccccc2)[C@H](c2ccccc2)C1 the compound record lists IC50 as < 100 nM

For COCCN1C[C@@H](NC(=O)Nc2cc(Br)cnc2-c2ccccc2)[C@H](c2ccccc2)C1 (relative stereo) [Example 3] the compound record lists IC50 as < 100 nM

For COCCN1C[C@@H](NC(=O)Nc2ccc(-c3ccccc3)nc2C)[C@H](c2ccc(F)c(F)c2)C1 the compound record lists IC50 as 100 to 1000 nM

For COCCN1C[C@@H](NC(=O)Nc2c(-c3ccccc3)c(=O)n(C)n2C)[C@H](c2ccc(F)c(F)c2)C1 the compound record lists IC50 as < 100 nM

====

For each of the molecules below, state its pIC50.
# TARGET_DESC: TrkA (Homo sapiens, UniProt P04629)
# Sequence (P04629 440-796 limits assumed): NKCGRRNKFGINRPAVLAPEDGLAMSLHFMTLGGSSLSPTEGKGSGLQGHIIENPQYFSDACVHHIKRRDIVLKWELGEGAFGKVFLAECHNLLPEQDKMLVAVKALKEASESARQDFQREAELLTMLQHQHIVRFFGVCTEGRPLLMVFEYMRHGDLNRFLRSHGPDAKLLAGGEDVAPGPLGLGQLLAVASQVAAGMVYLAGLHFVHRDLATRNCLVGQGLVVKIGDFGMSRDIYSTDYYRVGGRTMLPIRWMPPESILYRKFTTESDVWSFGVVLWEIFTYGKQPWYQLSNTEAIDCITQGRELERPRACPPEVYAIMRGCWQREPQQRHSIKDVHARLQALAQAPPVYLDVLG
pIC50: −log10 of the molar value.

Measured pIC50 for this entry COCCN1C[C@@H](NC(=O)Nc2cc(-c3cccnc3)cnc2C)[C@H](c2ccc(F)c(F)c2)C1 on TrkA (Homo sapiens, UniProt P04629): 6.00 to 7.00

Measured pIC50 for this entry COCCN1C[C@@H](NC(=O)Nc2sc(-c3cnn(C)c3)nc2-c2ccccc2)[C@H](c2ccc(F)c(F)c2)C1 [Example 56, di(trifluoroacetate)] on TrkA (Homo sapiens, UniProt P04629): > 7.00

Measured pIC50 for this entry COCCN1C[C@@H](NC(=O)Nc2ccc(Br)nc2-c2ccccc2)[C@H](c2ccc(F)c(F)c2)C1 on TrkA (Homo sapiens, UniProt P04629): > 7.00

Measured pIC50 for this entry COCCN1C[C@@H](NC(=O)Nc2ccc(C)nc2-c2ccccc2)[C@H](c2ccc(F)c(F)c2)C1 on TrkA (Homo sapiens, UniProt P04629): > 7.00

Measured pIC50 for this entry COCCN1C[C@@H](NC(=O)Nc2cc(Br)cnc2-c2ccccc2)[C@H](c2ccc(F)c(F)c2)C1 on TrkA (Homo sapiens, UniProt P04629): > 7.00

Measured pIC50 for this entry COCCN1C[C@@H](NC(=O)Nc2ccc(-c3ccc(S(C)(=O)=O)cc3)nc2C)[C@H](c2ccc(F)c(F)c2)C1 on TrkA (Homo sapiens, UniProt P04629): 6.00 to 7.00

Measured pIC50 for this entry COCCN1C[C@@H](NC(=O)Nc2sc(-c3ccccc3)nc2C)[C@H](c2ccc(F)c(F)c2)C1 on TrkA (Homo sapiens, UniProt P04629): > 7.00
